experiment: qHTS RealTime-Glo MT Cell Viability Assay in HepG2 cells - 8 hour (AID 1224873); conditions: RealTime-Glo luminescence; series mostly up to 76.8 µM; also: nearly all actives have a fitted effect of over 55% in size
Inconclusive results are not listed. Active and inactive are the calls of the source. Calls follow the shape of the dose curve; as a rule, active = well fitted cell-killing curve with a large enough effect in the repeat runs; inconclusive = weak or mixed curves; inactive = flat fitted curve, though single readings scatter.
Parameter call: string, one of TRUE for active, FALSE for inactive

[in] Status in this test for C[n+]1ccn(Cc2ccccc2)c1 ?
[out] FALSE

[in] Now this one: CCCC/C=C/CCCCO
[out] FALSE

[in] What would you report for CO[Si](CCCNc1ccccc1)(OC)OC ?
[out] FALSE

[in] What would you report for CCCCCCCCCCCCCCCC(=O)OC[C@H](O)[C@H]1OC(=O)C(O)=C1O ?
[out] FALSE

[in] // repeat for O=Cc1cc(O)ccc1Br and report
[out] FALSE

[in] Similarly, CCCCCCCCOC(=O)c1ccc(O)cc1 ?
[out] FALSE

[in] Then this compound: C=CC(=O)OCC(CO)(COCC(COC(=O)C=C)(COC(=O)C=C)COC(=O)C=C)COC(=O)C=C
[out] TRUE
